# assayText: growth inhibitors of H69AR lung tumor, primary screen, human, duplicate replicates (AID 580);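 further: 100% = mean luminescence of untreated wells and 0% = no signal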
# testSettings: H69AR lung tumor cells viability, ATP luminescence, 72 h; at 10 µM; stronger effect = lower value
Activity calls are given as the source filed them.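 How the source made its calls: active means viability at or under a set limit in both replicates, limit being median viability minus 3 SD (cut at about 48% in these data, passing the limit was not always enough); inconclusive means at or under the limit in just one replicate; inactive means at or above the limit in both replicates.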
Record form. Attribute: viability. Fill in for each entry.

Request: Name the recorded viability for FC(F)(F)c1ccc(Sc2nnc(-c3cccs3)n2CC2CCCO2)nc1 (stereo unspecified) .
Result: 94.5% (inactive)

Request: Name the recorded viability for Cc1occc1C(=O)Nc1cccnc1 .
Result: 97.7% (inactive)

Request: Name the recorded viability for Oc1cccc2ccc(Nc3ccccn3)nc12 .
Result: 1.99% (active)

Request: Name the recorded viability for Cc1noc(NS(=O)(=O)c2ccc(N)cc2)c1C .
Result: 105% (inactive)

Request: Name the recorded viability for Nc1nonc1-n1nnc(C(=O)c2ccccc2)c1-c1ccccc1 .
Result: 99.4% (inactive)

Request: Name the recorded viability for CSc1ccccc1NC(=O)CN(c1ccccc1)S(=O)(=O)N(C)C .
Result: 87.7% (inactive)

Request: Name the recorded viability for CSC1=C(C#N)C(C)CC(=O)N1 (stereo unspecified) .
Result: 115% (inactive)

Request: Name the recorded viability for CCN(CC)CCN1C(=O)C(O)=C(C(=O)c2cccs2)C1c1ccc(C)o1 (stereo unspecified) .
Result: 98.6% (inactive)

Request: Name the recorded viability for O=C(CN1CCCN(S(=O)(=O)c2ccc(Br)cc2)CC1)Nc1ccc2c(c1)OCO2 .
Result: 6.58% (active)

Request: Name the recorded viability for CCOc1ccccc1N1CCN(c2nc3ccccc3nc2C(C#N)C(=O)OC)CC1 (stereo unspecified) .
Result: 83.9% (inactive)

Below are some compounds; for each one, tell me its viability.
1. Cc1nnc(SCC(=O)NCc2ccc3c(c2)OCO3)s1
2. O=C(CNC(=O)c1cccs1)NCCN1CCN(c2ccccc2F)CC1
3. Cn1c(C(=O)OC(C(=O)NC2CCCC2)c2cccnc2)cc2sccc21 (stereo unspecified)
4. O=c1c2cnn(-c3ccccc3)c2ncn1/N=C/c1ccncc1
5. Cc1ccc(OCC2Cn3c(nc4c3c(=O)n(C)c(=O)n4C)O2)cc1 (stereo unspecified)
6. O=C(CSc1nnc2c3cc(F)ccc3nc(-c3ccccc3)n12)N1CCOCC1

Result:
101% (inactive)
89.3% (inactive)
89.1% (inactive)
101% (inactive)
93% (inactive)
72.6% (inactive)

Below are some compounds; for each one, tell me its viability.
1. CCOc1cc2[nH]c(=O)n(CCCCC(=O)NCc3ccco3)c(=O)c2cc1OCC
2. O=C(CSc1nc(C2CCCCC2)n(-c2ccccc2)n1)NCCN1C(=O)CSC1=O
3. Cc1ccc(CNC(=O)CCCn2c(=O)c3ccccc3n(CC(=O)NCc3ccco3)c2=O)cc1
4. O=S1(=O)C=C(Sc2nc3ccccc3s2)c2ccccc21

Result:
1. 82.5% (inactive)
2. 98.8% (inactive)
3. 89.6% (inactive)
4. 1.38% (active)

Request: Name the recorded viability for Cc1cc(C)nc(NS(=O)(=O)c2ccc(NC(=O)Cn3c(=O)oc4ccccc43)cc2)n1 .
Result: 86.7% (inactive)

----------
# assayText: growth suppression of yeast trafficking mutant, preliminary HTS, modulators of trafficking downstream of Golgi apparatus project, 1536-format plate, OD 615 nm (AID 637)
# testSettings: yeast transport mutant growth, absorbance 615 nm, 18 h
Activity calls are given as the source filed them. No stated cut-off is given here; in the data, active means inhibition above about 30%; inactive means the rest.
Tick one outcome: active, inactive

Please review the entries below; each comes with its answer.
Request: // param item: Cc1ccc(-c2nn(-c3ccccc3)cc2/C=C(\C#N)c2cccc(C#N)c2)o1 ; yields the recorded call
Result: inactive

Request: // param item: CCN1CCN(Cc2c(C)[nH]c3ccc(OC)cc3c2=O)CC1 ; yields the recorded call
Result: inactive

Request: // param item: O=C(O)c1cc2cc(F)ccc2[nH]1 ; yields the recorded call
Result: inactive

Request: // param item: Cc1ccccc1NC(=O)CN1CCC(NC(=O)Nc2ccccc2)CC1 ; yields the recorded call
Result: inactive

Request: // param item: C=CCn1c(SCC(=O)c2ccccc2)nnc1-c1ccc2c(c1)OCO2 ; yields the recorded call
Result: inactive

Request: // param item: COc1ccc(-c2nnc(SCC(=O)Nc3sc4c(c3C#N)CCC4)n2CC2CCCO2)cc1 (configuration not stated) ; yields the recorded call
Result: inactive

Request: // param item: O=C(NCCCN1CCN(c2cccc(Cl)c2)CC1)c1ccc(N2CCCC2=O)cc1 ; yields the recorded call
Result: inactive

Request: // param item: CCCCNc1cc(C(=O)O)cc(S(N)(=O)=O)c1Oc1ccccc1 ; yields the recorded call
Result: inactive

New cases:
Request: // param item: O=C(Nc1ccc2c(c1)OCO2)N1CCN(c2ncccn2)CC1 ; yields the recorded call
Result: inactive

Request: // param item: Cc1ccc(Cn2c(C)nc3c(c2=O)c2nc4ccccc4nc2n3Cc2ccco2)cc1 ; yields the recorded call
Result: inactive

Request: // param item: CCCn1nnc(NCc2ccc(OCc3cccs3)c(OC)c2)n1 ; yields the recorded call
Result: inactive

Request: // param item: Cc1ccc(Nc2nc(Oc3ccc(=O)[nH]n3)nc(N(C)C)n2)cc1 ; yields the recorded call
Result: inactive

----------
# assayText: growth inhibitors of H69AR lung tumor, primary screen, human, duplicate replicates (AID 580);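 further: 100% = mean luminescence of untreated wells and 0% = no signal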
# testSettings: H69AR lung tumor cells viability, ATP luminescence, 72 h; at 10 µM; stronger effect = lower value
# Satisfied = viability below 90% (exclusive); Not satisfied = viability at/above 90%

Please review the entries below; each comes with its answer.
Request: A record lists O=C(OCc1cccs1)c1ccccc1NS(=O)(=O)c1ccc2c(c1)OCCO2 . Is its viability below 90%?
Result: Not satisfied

Request: A record lists O=C1c2cccnc2C(=O)N1c1cccc(-c2nc3ccccc3o2)c1 . Is its viability below 90%?
Result: Not satisfied

Request: A record lists CC(=O)Nc1ccc(NC(=O)c2ccccc2N(C)S(C)(=O)=O)cc1 . Is its viability below 90%?
Result: Not satisfied

Kindly review the next molecule as well.
Request: A record lists CCOC(=O)Nc1ccc(NS(=O)(=O)c2ccc(C)cc2)cc1 . Is its viability below 90%?
Result: Satisfied

----------
# assayText: growth inhibitors of H69AR lung tumor, primary screen, human, duplicate replicates (AID 580);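 further: 100% = mean luminescence of untreated wells and 0% = no signal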
# testSettings: H69AR lung tumor cells viability, ATP luminescence, 72 h; at 10 µM; stronger effect = lower value
measurementLabel: viability (%)
One number for each entry, in %.

Answered cases to consult:
Request: Name the recorded viability for CCOc1ccc2nc(NC(=O)CSc3nc4ccccc4c(=O)n3Cc3ccco3)sc2c1 .
Result: 45.2

Request: Name the recorded viability for Cc1csc(SCCn2c(N3CCCC3)nc3c2c(=O)[nH]c(=O)n3C)n1 .
Result: 100

New cases:
Request: Name the recorded viability for CNc1ccc(C(O)(C(F)(F)F)C(F)(F)F)cc1C(O)(C(F)(F)F)C(F)(F)F .
Result: 80.7

----------
Record form. Attribute: viability. Fill in for each entry.
# assayText: growth inhibitors of H69AR lung tumor, primary screen, human, duplicate replicates (AID 580);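 further: 100% = mean luminescence of untreated wells and 0% = no signal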
# testSettings: H69AR lung tumor cells viability, ATP luminescence, 72 h; at 10 µM; stronger effect = lower value
Give bare numbers, in %.

Request: Name the recorded viability for CC(=O)c1ccc(N2CCN(C(=O)c3cc(C)on3)CC2)cc1 .
Result: 111

Request: Name the recorded viability for Cc1ccccc1-c1nc(CS(=O)(=O)CC(=O)N(C)C2CCCCC2)c(C)o1 .
Result: 92.7

Request: Name the recorded viability for Cc1cc(=O)[nH]c(S/C=C/c2ccccc2)n1 .
Result: 79.9

Request: Name the recorded viability for Cc1ccc(-c2nc(N)n(C(=O)c3cccnc3)n2)cc1 .
Result: 105

Below are some molecules; for each one, tell me its viability.
1. CCOC(=O)c1cc(-c2ccc(N)cc2)sc1N
2. NS(=O)(=O)c1cc2c(cc1Cl)NC=NS2(=O)=O

Result:
1: 93.4; 2: 100

Below are some molecules; for each one, tell me its viability.
1. Cc1cccc(C(=O)O)c1NC(=O)c1ccc(F)cc1
2. CCc1ccccc1N1C(=O)C2CC(C)=C(C)CC2C1=O (centres undefined)
3. CC(C)N(O)C(=O)NC(C)(C)C
4. Cc1ccc(S(=O)(=O)N(C)c2ccc(OCC(=O)OCc3c(C)noc3C)cc2)cc1
5. CC1CC(C)CN(c2nc3c(c(=O)[nH]c(=O)n3C)n2CCCSc2nc3ccccc3s2)C1 (centres undefined)
6. CCOC(=O)Cc1csc(NC(=O)c2cccc(OC)c2)n1
7. CN1CC=C2C(C#N)=C(N)C(C#N)(C#N)C(c3cccc(Cl)c3Cl)C2C1 (centres undefined)
8. CC1(C)CC(=O)C(C=Nc2ccncc2)=C(O)C1

Result:
104
103
93.8
105
100
103
61.1
106

----------
# assayText: reversal of MRP1-mediated doxorubicin resistance, pilot screen, H69AR cells, doxorubicin co-treatment (AID 601)
# testSettings: H69AR cells, CellTiter-Glo, 72 h; compound alone cytotoxicity; at 10 µM
Record form. Attribute: viability. Fill in for each entry.
One number for each entry, in %.

Request: Name the recorded viability for Cn1c(SCc2c(F)cccc2Cl)nnc1-c1cccs1 .
Result: 87.9

Request: Name the recorded viability for CC1(C)C(c2cccs2)=[N+]([O-])C2(CCCCC/C2=N\O)N1O (stereo not drawn) .
Result: 110

Request: Name the recorded viability for Cc1c2cnn(CC(=O)N3CCN(c4ncccn4)CC3)c(=O)c2c(C)n1Cc1ccc(F)cc1 .
Result: 99.5

Request: Name the recorded viability for CSc1ccc(-c2cc(=O)c3ccccc3o2)cc1 .
Result: 56.9

Request: Name the recorded viability for O=C(O)c1ccc(CSc2ncn[nH]2)cc1 .
Result: 94.4

Below are some compounds; for each one, tell me its viability.
1. COc1cccc(C(=O)Nc2c(C(N)=O)oc3ccccc23)c1
2. CCOC(=O)Cc1csc(NC(=O)CSc2nnc(-c3ccncc3)n2Cc2ccco2)n1
3. CN(C)CCC(c1ccc(Br)cc1)c1ccccn1 (stereo not drawn)

Result:
48.7
97.6
102
